All figures here come from patent US8513162B2.

# pest or weed control at 500 ppm values compiled below
Test system: Blattalla germanica
Test: Test Example 5: filter paper with sucrose bait, Blattalla germanica
Assay type: in vivo
Conditions: 144 h; 500 ppm active ingredient, 0.7 ml on filter paper; 2 male imagoes of Blattalla germanica; after 6 days; read-out: pest death rate
Provide only the numeric value, understood in %.

Reference set (2 entries):
Molecule	pest or weed control at 500 ppm, %
N#CC(C1CCS(=O)(=O)CC1)S(=O)(=O)CCC(F)(F)F (stereo not drawn)	100
N#CC(C1CCSCC1)S(=O)(=O)CCC(F)(F)C(F)(F)F (stereo not drawn)	100

We next turn to a different molecule, shown below.
Please fill in: pest or weed control at 500 ppm reported for N#CC(CCC(F)(F)C(F)(F)F)S(=O)(=O)CC1CCCO1 (stereo not drawn) = 100
